Ref: PubChem BioAssay (EPA / NIEHS)

- Read-out: Phosphatase and tensin (PTEN), PTEN (gene 5728)
- Assay Comment: LTEA_HepaRG_PTEN: Life Technologies and Expression Analysis (LTEA) Assay for Phosphatase and tensin (PTEN) using HepaRG (AID 2283523)
- Measurement Context: mRNA level, 48 h; actives raise or lower the signal
Calls of active or inactive are those of the source. How the source made its calls: active means hit-call score of the fitted dose curve at least 0.9, where 1 is the maximum; inactive means score below 0.9.
Possible outcomes: true = active, false = inactive

> print(dat)
                                    molecule  category
 1  O=C(O)C1C(C(=O)O)C2(Cl)C(Cl)=C(Cl)C1(Cl)C2(Cl)Cl (centres undefined)     false
 2                           ClC(Cl)c1ccccc1     false
 3  Nc1cc2c3c(c1)C(c1ccccc1)=N[C@@H](NC(=O)c1cccnc1)C(=O)N3CC2     false
 4                             Cc1ccc(O)cc1C     false
 5                             Cc1ccc(N)cc1N     false
 6                CCNc1nc(Cl)nc(NC(C)(C)C)n1     false
 7                       CC(C)(C)c1ccc(O)cc1     false
 8                    c1ccc2c(c1)Nc1ccccc1S2     false
 9                       ClC(Cl)(Cl)c1ccccc1     false
10  ClC1=C(Cl)C2(Cl)C3C(Cl)C(Cl)CC3C1(Cl)C2(Cl)Cl (centres undefined)     false
11  CCOP(=S)(Oc1ccc([N+](=O)[O-])cc1)c1ccccc1 (centres undefined)      true
12                          CC(Cl)(Cl)C(=O)O     false
13  O=P1(N(CCCl)CCCl)NCCCO1 (centres undefined)     false
14  CCOc1ccc(C(C)(C)COCc2cccc(Oc3ccccc3)c2)cc1     false
15                                  COCCOCCO     false
16  CCC1(c2ccccc2)C(=O)N=C(O)NC1=O (centres undefined)     false
17                                c1nc[nH]n1     false
18                             O=C(O)C(Cl)Cl     false
19                           CCN(CC)c1ccccc1     false
20                      CCC(C)(C)c1ccc(O)cc1     false
21                              CCCCc1ccccc1     false
22                        CCOP(=S)(OCC)SCSCC     false
23                        CC(C)(C)OOC(C)(C)C     false
24                        CCCCCCCc1ccc(O)cc1     false
25                              CN(C)C(=O)Cl     false
26                            [N-]=[N+]=[N-]     false
27          c1ccc(OP(Oc2ccccc2)Oc2ccccc2)cc1     false
28                  Cc1ccc([N+](=O)[O-])cc1C     false
29                           CCOS(=O)(=O)OCC     false
